- MEASURED ON: SST-R2 (Homo sapiens, UniProt P30874)
- Sequence (P30874 whole entry): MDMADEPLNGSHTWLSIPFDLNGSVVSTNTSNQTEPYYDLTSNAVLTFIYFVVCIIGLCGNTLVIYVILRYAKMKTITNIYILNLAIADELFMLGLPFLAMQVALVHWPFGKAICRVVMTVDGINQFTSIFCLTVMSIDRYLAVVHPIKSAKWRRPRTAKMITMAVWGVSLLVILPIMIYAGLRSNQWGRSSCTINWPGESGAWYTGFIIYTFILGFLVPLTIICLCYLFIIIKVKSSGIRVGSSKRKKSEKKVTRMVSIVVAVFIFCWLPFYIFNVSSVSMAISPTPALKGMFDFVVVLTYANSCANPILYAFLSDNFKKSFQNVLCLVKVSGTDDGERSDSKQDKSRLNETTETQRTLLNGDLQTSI
- EXPERIMENT: Inhibition of SRIF binding to SST-R2 (species not stated)
- CONDITIONS USED: Quick Screen, 100 nM; SST-R2; read-out: Quick Screen SRIF Inhibited (%) 100 nM

{"columns": ["SMILES RECORD", "inhibition at 0.1 µM"],
 "data": [
  ["C[C@@H](O)[C@@H]1NC(=O)[C@H](CCCCN)NC(=O)[C@@H](Cc2c[nH]c3ccccc23)NC(=O)[C@H](Cc2c[nH]c3ccccc23)NC(=O)[C@H](Cc2ccccc2)NC(=O)[C@@H](NC(=O)CCCNC(=O)CN(CCN(CCN(CC(=O)O)CC(=O)O)CC(=O)O)CC(=O)O)CCNC(=O)CCCN(CC(N)=O)C(=O)[C@H](Cc2ccccc2)NC1=O", "76%"],
  ["C[C@@H](O)[C@@H]1NC(=O)[C@H](CCCCN)NC(=O)[C@@H](Cc2c[nH]c3ccccc23)NC(=O)[C@H](Cc2c[nH]c3ccccc23)NC(=O)[C@H](Cc2ccccc2)NC(=O)[C@@H](NC(=O)CCNC(=O)CN(CCN(CCN(CC(=O)O)CC(=O)O)CC(=O)O)CC(=O)O)CCNC(=O)CCCN(CC(N)=O)C(=O)[C@H](Cc2ccccc2)NC1=O", "69%"],
  ["C[C@@H](O)[C@@H]1NC(=O)[C@H](CCCCN)NC(=O)[C@@H](Cc2c[nH]c3ccccc23)NC(=O)[C@H](Cc2c[nH]c3ccccc23)NC(=O)[C@H](Cc2ccccc2)NC(=O)[C@@H](NC(=O)CN(CCN(CCN(CC(=O)O)CC(=O)O)CC(=O)O)CC(=O)O)CCNC(=O)CCCN(CC(N)=O)C(=O)[C@H](Cc2ccccc2)NC1=O", "87%"],
  ["C[C@@H](O)[C@@H]1NC(=O)[C@H](CCCCN)NC(=O)[C@@H](Cc2c[nH]c3ccccc23)NC(=O)[C@H](Cc2c[nH]c3ccccc23)NC(=O)[C@H](Cc2ccccc2)NC(=O)[C@@H](NC(=O)CNC(=O)CN(CCN(CCN(CC(=O)O)CC(=O)O)CC(=O)O)CC(=O)O)CCNC(=O)CCCN(CC(N)=O)C(=O)[C@H](Cc2ccccc2)NC1=O", "83%"]
]}
